Documented melting point across a set of molecules

molecule	melting point
CCOCCn1cc2c(C3C(=O)Nc4ccc(Br)cc43)nc(NCCN3CCOCC3)nc2n1 (centres unmarked)	276 to 278 °C
O=C1Nc2c(cc([N+](=O)[O-])cc2[N+](=O)[O-])C1c1ncnc2c1cnn2C1CCCC1 (centres unmarked)	242 to 246 °C
CCCn1cc2c(C3C(=O)Nc4ccc(Cl)cc43)ncnc2n1 (centres unmarked)	302 to 306 °C
Cn1cc2c(C3C(=O)Nc4ccc(C#N)cc43)ncnc2n1 (centres unmarked)	> 350 °C
COC[C@H]1C[C@@H](n2cnc3c(C4C(=O)Nc5ccc(C#N)cc54)ncnc32)[C@H](O)[C@@H]1O (some centres unmarked)	230 to 236 °C (dec.)

---

# measured-on: CDK5/GST-p25 (Homo sapiens)
# Construct: The final construct, encoding for full-length human CDK5; made in house; host or cells: Sf21 insect cells (baculovirus co-infection)
# assay-text: Inhibition of CDK5/GST-p25 kinase activity (ELISA with time-resolved fluorescence readout)
# Format: biochemical
# condition-details: class symbols
pIC50: −log10 of the molar value.
Documented pIC50 across a set of compounds
readout-label: pIC50

compound	value-measured
CCCn1cc2c(C3C(=O)Nc4ccc(Br)cc43)nc(NCCCN(C)C)nc2n1 (stereo not drawn) [Example 198]	> 6.52
N#Cc1ccc2c(c1)C(c1nc(NCCCN3CCCCC3)nc3nn(C4CCCC4)cc13)C(=O)N2 (stereo not drawn) [Example 170]	5.52 to 6.52
O=C1Nc2ccccc2C1c1nc(Cl)nc2nn(C3CCCC3)cc12 (stereo not drawn) [Example 152]	< 5.00

---

Documented pIC50 across a set of compounds
# measured-on: CDK5/GST-p25 (Homo sapiens, UniProt Q00535)
# Construct: The final construct, encoding for full-length human CDK5; made in house; host or cells: Sf21 insect cells (baculovirus co-infection)
# Sequence (Q00535 whole entry): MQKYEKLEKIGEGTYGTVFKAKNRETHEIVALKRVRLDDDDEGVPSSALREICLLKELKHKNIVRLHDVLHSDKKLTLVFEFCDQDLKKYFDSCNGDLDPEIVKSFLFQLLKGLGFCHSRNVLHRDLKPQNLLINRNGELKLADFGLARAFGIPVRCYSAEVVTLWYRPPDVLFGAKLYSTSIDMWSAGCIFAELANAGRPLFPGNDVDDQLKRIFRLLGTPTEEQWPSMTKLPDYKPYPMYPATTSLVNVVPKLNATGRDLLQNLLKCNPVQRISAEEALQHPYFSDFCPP
# Sequence (Q15078 108-307 partner limits assumed): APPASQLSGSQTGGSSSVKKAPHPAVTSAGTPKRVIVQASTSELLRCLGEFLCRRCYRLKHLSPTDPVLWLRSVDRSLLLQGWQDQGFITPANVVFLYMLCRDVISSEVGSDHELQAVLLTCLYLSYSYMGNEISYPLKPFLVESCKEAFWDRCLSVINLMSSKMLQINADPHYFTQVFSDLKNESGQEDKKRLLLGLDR
# assay-text: Inhibition of CDK5/GST-p25 kinase activity (ELISA with time-resolved fluorescence readout)
# Format: biochemical
# condition-details: class symbols
# Procedure: Two recombinant baculoviral constructs were created, one encoding for human CDK5 and the other encoding for human p25 with an amino-terminal glutathione-S-transferase (GST) tag. […] Compounds were tested for their ability to inhibit the kinase activity of recombinant baculoviral CDK5/GST-p25 using an enzyme-linked immunosorbent assay (ELISA) with time-resolved fluorescence (TRF) readout. […] Inhibition data were analyzed using ActivityBase and IC50 curves were generated using XLFit 3.0.5.
pIC50: −log10 of the molar value.

compound	measured-on	pIC50
CC(C)CNc1nc(C2C(=O)Nc3ccc(C#N)cc32)c2cn(C3CCCC3)nc2n1 (stereo not shown)	CDK5/GST-p25 (Homo sapiens, UniProt Q00535)	> 6.52
CN(C)CCN1CCN(c2nc(C3C(=O)Nc4ccc(Cl)cc43)c3cn(C4CCCC4)nc3n2)CC1 (stereo not shown)	CDK5/GST-p25 (Homo sapiens, UniProt Q00535)	< 5.00
N#Cc1ccc2c(c1)C(c1nc(NCCCN3CCOCC3)nc3c1CCC3)C(=O)N2 (stereo not shown)	CDK5/GST-p25 (Homo sapiens, UniProt Q00535)	5.52 to 6.52
O=C1Nc2ccc(F)cc2C1c1ncnc2c1cnn2C1CCCCC1 (stereo not shown)	CDK5/GST-p25 (Homo sapiens, UniProt Q00535)	< 5.00
CCCCCn1cc2c(C3C(=O)Nc4ccc(C#N)cc43)nc(NC(C)C)nc2n1 (stereo not shown)	CDK5/GST-p25 (Homo sapiens, UniProt Q00535)	> 6.52
CN(Cc1cccnc1)c1nc(C2C(=O)Nc3ccc(C#N)cc32)c2cn(C3CCCC3)nc2n1 (stereo not shown)	CDK5/GST-p25 (Homo sapiens, UniProt Q00535)	< 5.00
Cn1cc2c(C3C(=O)Nc4ccc(Br)cc43)ncnc2n1 (stereo not shown)	CDK5/GST-p25 (Homo sapiens, UniProt Q00535)	> 6.52
O=C1Nc2ccc(F)c(F)c2C1c1ncnc2c1cnn2C1CCCC1 (stereo not shown)	CDK5/GST-p25 (Homo sapiens, UniProt Q00535)	< 5.00
CNc1nc(C2C(=O)Nc3ccc(C(F)(F)F)cc32)c2cn(C3CCCC3)nc2n1 (stereo not shown)	CDK5/GST-p25 (Homo sapiens, UniProt Q00535)	< 5.00
N#Cc1ccc2c(c1)C(c1ncnc3c1cnn3C1CCCCC1)C(=O)N2 (stereo not shown)	CDK5/GST-p25 (Homo sapiens, UniProt Q00535)	< 5.00
C=CCNc1nc(C2C(=O)Nc3ccc(C#N)cc32)c2cn(CCCCC)nc2n1 (stereo not shown)	CDK5/GST-p25 (Homo sapiens, UniProt Q00535)	> 6.52
O=C1Nc2ccc(Cl)cc2C1c1nc(N2CCOCC2)nc2nn(C3CCCC3)cc12 (stereo not shown)	CDK5/GST-p25 (Homo sapiens, UniProt Q00535)	< 5.00
N#Cc1ccc2c(c1)C(c1nc(OCCc3cccnc3)nc3nn(C4CCCC4)cc13)C(=O)N2 (stereo not shown)	CDK5/GST-p25 (Homo sapiens, UniProt Q00535)	< 5.00
CC(C)Cn1cc2c(C3C(=O)Nc4ccc(Br)cc43)nc(NCCCN3CCOCC3)nc2n1 (stereo not shown)	CDK5/GST-p25 (Homo sapiens, UniProt Q00535)	> 6.52
COCCNc1nc(C2C(=O)Nc3ccc(Cl)cc32)c2cn(CC(C)C)nc2n1 (stereo not shown)	CDK5/GST-p25 (Homo sapiens, UniProt Q00535)	> 6.52
CCCn1cc2c(C3C(=O)Nc4ccc(Cl)cc43)ncnc2n1 (stereo not shown)	CDK5/GST-p25 (Homo sapiens, UniProt Q00535)	> 6.52
Cn1ncc2c(C3C(=O)Nc4ccc(Cl)cc43)ncnc21 (stereo not shown)	CDK5/GST-p25 (Homo sapiens, UniProt Q00535)	> 6.52
CCCn1cc2c(C3C(=O)Nc4ccc(Br)cc43)nc(NCCc3ccccn3)nc2n1 (stereo not shown)	CDK5/GST-p25 (Homo sapiens, UniProt Q00535)	> 6.52
Cl.NCCNc1nc(C2C(=O)Nc3ccc(C(F)(F)F)cc32)c2cn(C3CCCC3)nc2n1 (stereo not shown) [Example 252, hydrochloride salt]	CDK5/GST-p25 (Homo sapiens, UniProt Q00535)	5.52 to 6.52
O=C1Nc2ccc(C(F)(F)F)cc2C1c1nc(NCCc2cccnc2)nc2nn(C3CCCC3)cc12 (stereo not shown)	CDK5/GST-p25 (Homo sapiens, UniProt Q00535)	< 5.00
CC(=O)NCCNc1nc(C2C(=O)Nc3ccc(C(F)(F)F)cc32)c2cn(C3CCCC3)nc2n1 (stereo not shown)	CDK5/GST-p25 (Homo sapiens, UniProt Q00535)	5.52 to 6.52
C[C@@H](O)CNc1nc(C2C(=O)Nc3ccc(Br)cc32)c2cn(C)nc2n1 (stereo partly shown)	CDK5/GST-p25 (Homo sapiens, UniProt Q00535)	> 6.52

---

compound	melting point
O=C1Nc2ccccc2C1c1ncnc2nn(C3CCCC3)cc12 (centres unmarked)	289 to 292 °C
CN(C)CCCNc1nc(C2C(=O)Nc3ccc(Br)cc32)c2cn(C)nc2n1 (centres unmarked)	310 to 312 °C (dec.)
Cn1cc2c(C3C(=O)Nc4ccc(Br)cc43)nc(NCCN)nc2n1 (centres unmarked)	260 to 262 °C
COCCNc1nc(C2C(=O)Nc3ccc(Br)cc32)c2cn(CC(C)C)nc2n1 (centres unmarked)	294 to 296.8 °C
O=C1Nc2cc(Cl)ccc2C1c1ncnc2c1cnn2C1CCCC1 (centres unmarked)	288 to 291 °C
CCCn1cc2c(C3(F)C(=O)Nc4ccc(Br)cc43)ncnc2n1 (centres unmarked)	184 to 186 °C
CC(C)Cn1cc2c(C3C(=O)Nc4ccc(Cl)cc43)nc(NCCCN3CCOCC3)nc2n1 (centres unmarked)	263 to 265.5 °C
C=CCNc1nc(C2C(=O)Nc3ccc(C#N)cc32)c2cn(CCCCC)nc2n1 (centres unmarked)	265 °C (dec.)
CC(C)CNc1nc(C2C(=O)Nc3ccc(Cl)cc32)c2cn(C3CCCC3)nc2n1 (centres unmarked)	282 to 286 °C
C=CCn1cc2c(C3C(=O)Nc4ccc(C#N)cc43)ncnc2n1 (centres unmarked)	> 300 °C
O=C1Nc2ccccc2C1c1nc(Cl)nc2nn(C3CCCC3)cc12 (centres unmarked)	270 to 273 °C
CCCn1cc2c(C3C(=O)Nc4ccc(Br)cc43)nc(NCc3ccncc3)nc2n1 (centres unmarked)	> 300 °C
[N-]=[N+]=NCCCn1cc2c(C3C(=O)Nc4ccc(Br)cc43)ncnc2n1 (centres unmarked)	252 to 256 °C
Cl.NCCCNc1nc(C2C(=O)Nc3ccc(C(F)(F)F)cc32)c2cn(C3CCCC3)nc2n1 (centres unmarked)	304 to 306 °C

---

# measured-on: His6-GSK-3β (Homo sapiens, UniProt P49841)
# Construct: made in house; host or cells: Sf21 insect cells (baculovirus)
# Sequence (P49841 2-419): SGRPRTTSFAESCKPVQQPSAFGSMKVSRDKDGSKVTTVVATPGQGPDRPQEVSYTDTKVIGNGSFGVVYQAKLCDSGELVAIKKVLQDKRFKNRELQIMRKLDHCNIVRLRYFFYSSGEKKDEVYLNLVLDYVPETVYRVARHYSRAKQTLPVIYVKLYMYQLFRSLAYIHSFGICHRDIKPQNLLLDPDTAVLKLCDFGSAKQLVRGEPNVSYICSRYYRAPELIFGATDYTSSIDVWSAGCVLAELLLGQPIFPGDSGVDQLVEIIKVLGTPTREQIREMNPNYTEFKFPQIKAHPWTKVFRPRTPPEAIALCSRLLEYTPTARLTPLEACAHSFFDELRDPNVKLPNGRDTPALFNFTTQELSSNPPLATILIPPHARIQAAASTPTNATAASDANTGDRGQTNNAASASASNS
# assay-text: Inhibition of His6-GSK-3β kinase activity (ELISA-based format, time-resolved fluorescence readout)
# Assay type: biochemical
# condition-details: class symbols; read-out: GSK3β IC50

molecule	measured-on	IC50
N#Cc1ccc2c(c1)NC(=O)C2c1ncnc2c1cnn2C1CCCCC1 (stereo not drawn) [Example 69]	His6-GSK-3β (Homo sapiens, UniProt P49841)	> 10000 nM
COCCNc1nc(C2C(=O)Nc3ccc(Br)cc32)c2cn(CC(C)C)nc2n1 (stereo not drawn) [Example 263]	His6-GSK-3β (Homo sapiens, UniProt P49841)	< 300 nM
O=C1Nc2cc(Cl)ccc2C1c1ncnc2c1cnn2C1CCCC1 (stereo not drawn) [Example 59]	His6-GSK-3β (Homo sapiens, UniProt P49841)	300 to 3000 nM
